measurement type: MIC

Provide Staphylococcus aureus ATCC 25923 MIC reading for CC[C@H](C)[C@H](NC(=O)CN)C(=O)N[C@@H](Cc1ccccc1)C(=O)NCC(=O)N[C@@H](CCCCN)C(=O)N[C@H](C(=O)N[C@@H](CC(C)C)C(=O)NCC(=O)N[C@H](C(=O)NCC(=O)N[C@@H](CCCCN)C(=O)N[C@@H](CCCCN)C(=O)N[C@H](C(=O)N[C@@H](CC(C)C)C(=O)N[C@H]1CSSC[C@@H](C(=O)O)NC(=O)[C@H](CCSC)NC(=O)CNC(=O)[C@H](CO)NC(=O)[C@H](CC(C)C)NC(=O)[C@H](CCC(=O)O)NC1=O)[C@@H](C)O)C(C)C)[C@@H](C)CC .
2.92 µM

Provide Staphylococcus aureus ATCC 25923 MIC reading for CC[C@H](C)[C@H](N)C(=O)N[C@@H](Cc1cnc[nH]1)C(=O)N[C@@H](CCCCN)C(=O)N[C@@H](CC(C)C)C(=O)N[C@H](C(=O)N[C@@H](CCCCN)C(=O)N[C@@H](CC(C)C)C(=O)N[C@@H](Cc1c[nH]c2ccccc12)C(=O)N[C@@H](CC(C)C)C(=O)N[C@@H](CC(N)=O)C(=O)N[C@@H](CC(C)C)C(=O)NCC(=O)N[C@@H](CCCCN)C(=O)N[C@@H](CCCCN)C(=O)N[C@@H](Cc1ccccc1)C(=O)O)C(C)C .
> 64 µM

Provide Staphylococcus aureus ATCC 25923 MIC reading for CC[C@H](C)[C@H](NC(=O)[C@H](CCCN=C(N)N)NC(=O)[C@H](CCCCN)NC(=O)[C@H](CC(C)C)NC(=O)[C@H](CC(C)C)NC(=O)CN)C(=O)N[C@@H](CCCCN)C(=O)N[C@H](C(=O)N[C@@H](CC(C)C)C(=O)N[C@@H](CC(C)C)C(N)=O)C(C)C .
19.1 µM

----------
system: Klebsiella pneumoniae
measurement type: MIC (µM)
Return type: number; implicit unit µM.

# return recorded MIC for input CC[C@H](C)[C@H](NC(=O)[C@H](CCCCN)NC(=O)[C@H](CC(C)C)NC(=O)[C@H](CCCN=C(N)N)NC(=O)[C@H](CC(C)C)NC(=O)[C@H](CCCCN)NC(=O)[C@H](CCCCN)NC(=O)[C@H](CC(C)C)NC(=O)[C@H](CC(C)C)NC(=O)[C@H](CCCCN)NC(=O)[C@H](CCCCN)NC(=O)[C@H](CC(N)=O)NC(=O)[C@H](CCCN=C(N)N)NC(=O)[C@H](C)NC(=O)[C@H](CCSC)NC(=O)[C@@H]1CCCN1)C(=O)N[C@@H](C)C(=O)N[C@@H](Cc1ccccc1)C(=O)N[C@@H](CCCCN)C(=O)O [PMARNKKLLKKLRLKIAFK]
16

# return recorded MIC for input CC(C)C[C@H](NC(=O)[C@H](CCCCN)NC(=O)CNC(=O)[C@H](CCCCN)NC(=O)[C@H](Cc1ccccc1)NC(=O)[C@H](CCCCN)NC(=O)[C@H](Cc1c[nH]c2ccccc12)NC(=O)[C@H](CCCN=C(N)N)NC(=O)[C@H](Cc1ccccc1)NC(=O)[C@H](CCCN=C(N)N)NC(=O)[C@H](CCCN=C(N)N)NC(=O)[C@H](Cc1ccc(O)cc1)NC(=O)[C@H](CO)NC(=O)[C@H](CCCCN)NC(=O)CN)C(=O)N[C@@H](Cc1ccccc1)C(=O)N[C@@H](CC(C)C)C(=O)N[C@@H](Cc1ccccc1)C(=O)NCC(N)=O [GKSYRRFRWKFKGKLFLFG]
6.61

# return recorded MIC for input CC[C@H](C)[C@@H]1NC(=O)CNC(=O)[C@H](CCCN=C(N)N)NC(=O)[C@H](Cc2ccc(O)cc2)NC(=O)[C@@H]2CSSC[C@H](NC1=O)C(=O)N[C@@H](Cc1ccc(O)cc1)C(=O)N[C@@H](CCCN=C(N)N)C(=O)N[C@@H](CCCN=C(N)N)C(=O)N[C@H](C(=O)N[C@@H](CCCN=C(N)N)C(=O)O)CSSC[C@H](NC(=O)[C@H](Cc1c[nH]c3ccccc13)NC(=O)[C@@H](N)CCCCN)C(=O)N[C@@H](Cc1ccccc1)C(=O)N[C@@H](CCCN=C(N)N)C(=O)N[C@@H](C)C(=O)N2 [KWCFRACYRGICYRRCR]
7.14

# return recorded MIC for input CC[C@H](C)[C@H](NC(=O)[C@@H](NC(=O)[C@H](CCCN=C(N)N)NC(=O)[C@H](C)NC(=O)[C@H](CC(C)C)NC(=O)[C@H](CCCCN)NC(=O)[C@H](CCCN=C(N)N)NC(=O)[C@H](C)NC(=O)[C@H](CC(C)C)NC(=O)[C@H](CCCN=C(N)N)NC(=O)CNC(=O)[C@H](Cc1ccccc1)NC(=O)[C@H](CCCCN)NC(=O)[C@H](CO)NC(=O)[C@H](CC(C)C)NC(=O)[C@H](CC(C)C)NC(=O)CN)C(C)C)C(=O)N1CCC[C@H]1C(=O)N[C@@H](CCCCN)C(=O)N[C@H](C(N)=O)C(C)C [GLLSKFGRLARKLARVIPKV]
1

# return recorded MIC for input CC[C@H](C)[C@H](NC(=O)[C@H](CCCCN)NC(=O)[C@H](CC(N)=O)NC(=O)[C@H](CC(C)C)NC(=O)[C@@H](NC(=O)[C@H](CCCCN)NC(=O)[C@@H]1CCCN1)[C@@H](C)CC)C(=O)N[C@@H](CC(C)C)C(=O)NCC(=O)N[C@@H](CCCCN)C(=O)N[C@H](C(=O)N[C@@H](CC(C)C)C(=O)N[C@@H](CCCN=C(N)N)C(=O)N[C@@H](CC(C)C)C(=O)N[C@@H](C)C(=O)N[C@@H](C)C(=O)N[C@@H](C)C(=O)N[C@@H](Cc1ccccc1)C(=O)N[C@@H](CCCCN)C(N)=O)[C@@H](C)CC [PKILNKILGKILRLAAAFK]
6.25

# return recorded MIC for input CC(C)C[C@H](NC(=O)[C@H](C)NC(=O)[C@H](CCCN=C(N)N)NC(=O)[C@H](C)NC(=O)[C@H](Cc1c[nH]c2ccccc12)NC(=O)CNC(=O)[C@H](CCCN=C(N)N)NC(=O)[C@@H](N)CCCN=C(N)N)C(=O)N[C@@H](C)C(=O)N[C@@H](Cc1ccccc1)C(=O)N[C@@H](C)C(=O)N[C@@H](Cc1ccccc1)C(=O)NCC(=O)N[C@@H](CCCN=C(N)N)C(N)=O [RRGWARALAFAFGR]
1.9

# return recorded MIC for input CC(C)C[C@H](NC(=O)[C@H](CCCN=C(N)N)NC(=O)[C@H](CCCN=C(N)N)NC(=O)[C@H](C)NC(=O)[C@H](Cc1c[nH]c2ccccc12)NC(=O)CNC(=O)[C@H](CCCN=C(N)N)NC(=O)[C@@H](N)CCCN=C(N)N)C(=O)N[C@@H](Cc1ccccc1)C(=O)N[C@@H](C)C(=O)N[C@@H](C)C(=O)N[C@@H](Cc1ccccc1)C(=O)NCC(=O)N[C@@H](CCCN=C(N)N)C(=O)N[C@@H](CCCN=C(N)N)C(N)=O [RRGWARRLFAAFGRR]
1.8

Data provenance is DBAASP.
